Tested on: Hela
procedureSummary: MTT cell viability assay, Hela
Format: cell-based
testContext: Homo sapiens, HeLa, 72 h, MTT, 72 h; mean of at least three independent experiments; read-out: IC50 Hela
recordedMetric: IC50 (µM)
Answers are plain numbers, in µM.

# compound, unitString, result
records = [
    ("CC=C1CN2C3CC1C(C=O)C2Cc1c3[nH]c2ccccc12 (stereo not drawn)", "µM", 24.1),
    ("C=C=C1CN2[C@H]3C[C@H]1[C@H](C=O)[C@@H]2Cc1c3n(S(=O)(=O)c2ccc(C)cc2)c2cc(Br)ccc12 [Compound 15ag]", "µM", 9.89),
    ("C=C=C1CN2[C@H]3C[C@H]1[C@H](C=O)[C@@H]2Cc1c3n(S(=O)(=O)c2ccc(C)cc2)c2ccc(Br)cc12 [Compound 15af]", "µM", 8.56),
    ("CC=C1CN2C3CC1C(C=O)C2Cc1c3n(C)c2ccccc12 (stereo not drawn)", "µM", 22.3),
]

Batch request: IC50 per item, same order as input.
1. C=C=C1CN2[C@H]3C[C@H]1[C@H](C=O)[C@@H]2Cc1c3n(S(=O)(=O)c2ccc(C)cc2)c2cc(F)ccc12 [Compound 15aj]
2. C=C=C1CN2[C@H]3C[C@H]1[C@H](C=O)[C@@H]2Cc1c3n(S(=O)(=O)c2ccc(C)cc2)c2ccc(Cl)cc12 [Compound 15ai]

1: 18.8; 2: 2.95

* * *

System: MCF-7
procedureSummary: MTT cell viability assay, MCF-7
Assay type: cell-based
testContext: Homo sapiens, MCF7, 72 h, MTT, 72 h; mean of at least three independent experiments; read-out: IC50 MCF-7
Doc: threshold 20 µM (exclusive). Items with IC50 beneath it return satisfied; others return not satisfied.

# compound, systemName, group
rows = [
    ("C=C=C1CN2[C@H]3C[C@H]1[C@H](C=O)[C@@H]2Cc1c3n(S(=O)(=O)c2ccc(C)cc2)c2cc(F)ccc12 [Compound 15aj]", "MCF-7", "not satisfied"),
    ("C=C=C1CN2[C@H]3C[C@H]1[C@H](C=O)[C@@H]2Cc1c3n(S(=O)(=O)c2ccc(C)cc2)c2ccc(Br)cc12 [Compound 15af]", "MCF-7", "satisfied"),
    ("CC=C1CN2C3CC1C(C=O)C2Cc1c3n(C)c2ccccc12 (stereo not drawn)", "MCF-7", "not satisfied"),
    ("C=C=C1CN2[C@H]3C[C@H]1[C@H](C=O)[C@@H]2Cc1c3n(S(=O)(=O)c2ccc(C)cc2)c2cc(Br)ccc12 [Compound 15ag]", "MCF-7", "not satisfied"),
    ("C=C=C1CN2[C@H]3C[C@H]1[C@H](C=O)[C@@H]2Cc1c3n(S(=O)(=O)c2ccc(C)cc2)c2ccc(Cl)cc12 [Compound 15ai]", "MCF-7", "satisfied"),
]

Continue with the next compound.
Does the reported IC50 of the following compound sit strictly below 20 µM? CC=C1CN2C3CC1C(C=O)C2Cc1c3[nH]c2ccccc12 (stereo not drawn)
not satisfied

* * *

For each of the molecules below, state its pIC50.
System: Hela
procedureSummary: MTT cell viability assay, Hela
Format: cell-based
testContext: Homo sapiens, HeLa, source data sheet, single values of three experiments; read-out: MTT IC50 Hela
One number for each entry, as −log10 of the molar value.

These recorded examples may help you get a feel for the data.
# molecule, result
records = [
    ("CC=C1CN2C3CC1C(C=O)C2Cc1c3[nH]c2ccccc12 (stereo not drawn)", 4.56),
    ("C=C=C1CN2[C@H]3C[C@H]1[C@H](C=O)[C@@H]2Cc1c3n(S(=O)(=O)c2ccc(C)cc2)c2ccc(Br)cc12 [Compound 15af]", 5.01),
    ("C=C=C1CN2[C@H]3C[C@H]1[C@H](C=O)[C@@H]2Cc1c3n(S(=O)(=O)c2ccc(C)cc2)c2ccc(Cl)cc12 [Compound 15ai]", 5.52),
    ("C=C=C1CN2[C@H]3C[C@H]1[C@H](C=O)[C@@H]2Cc1c3n(S(=O)(=O)c2ccc(C)cc2)c2cc(F)ccc12 [Compound 15aj]", 4.67),
    ("C=C=C1CN2[C@H]3C[C@H]1[C@H](C=O)[C@@H]2Cc1c3n(S(=O)(=O)c2ccc(C)cc2)c2cc(Br)ccc12 [Compound 15ag]", 4.93),
]

API: the following record is the query input.
Supply pIC50 value. Item: CC=C1CN2C3CC1C(C=O)C2Cc1c3n(C)c2ccccc12 (stereo not drawn)
4.61

These entries and their values trace back to paper PMC10492809.
